System: SETVI
Test: Post-emergence herbicidal effect, greenhouse pot test
Type: in vivo, Setaria viridis
Conditions: 80 g/ha
propertyMeasured: Post-emergence effect against SETVI in %

| molecule | systemTested | Post-emergence effect against SETVI in % |
| --- | --- | --- |
| COC(=O)CCOC(=O)C(OC)Oc1nn(-c2ncccc2F)c(-c2ccc(F)nc2)c1C1CC1 (single isomer, unassigned) [Example I-80] | SETVI | 90% |

// input: 8 molecules below; output: Post-emergence effect against SETVI in % for each
1. COC(=O)CCOC(=O)C(OC)Oc1nn(-c2ncccc2F)c(-c2cncc(F)c2)c1C1CC1 (stereo not shown) [Example I-82]
2. COC(Oc1nn(-c2ncccc2F)c(-c2cncc(F)c2)c1C1CC1)C(=O)O (stereo not shown) [Example I-84]
3. COC(=O)C(OC)Oc1nn(-c2cccc(Cl)c2F)c(-c2cncc(F)c2)c1Br (stereo not shown) [Example I-17]
4. COC(=O)CCOC(=O)C(OC)Oc1nn(-c2ccccc2F)c(-c2ccc(F)nc2)c1C1CC1 (single isomer, unassigned) [Example I-75]
5. COC(=O)CCOC(=O)C(OC)Oc1nn(-c2cc(F)ccc2F)c(-c2cncc(F)c2)c1C1CC1 (single isomer, unassigned) [Example I-78]
6. COC(=O)C(OC)Oc1nn(-c2ncccc2F)c(-c2cncc(F)c2)c1C1CC1 (stereo not shown) [Example I-86]
7. COC(=O)CCOC(=O)C(OC)Oc1nn(-c2ccccc2F)c(-c2ccc(F)nc2)c1C(F)(F)F (stereo not shown) [Example I-62]
8. COC(=O)CCOC(=O)C(OC)Oc1nn(-c2ccccc2F)c(-c2ccc(F)nc2)c1Br (single isomer, unassigned) [Example I-20]

Reply:
1: 90%; 2: 90%; 3: 80%; 4: 80%; 5: 90%; 6: 90%; 7: 90%; 8: 80%

// input: 6 molecules below; output: Post-emergence effect against SETVI in % for each
1. COC(=O)C(OC)Oc1nn(-c2cc(F)ccc2F)c(-c2cncc(F)c2)c1C1CC1 (stereo not shown) [Example I-112]
2. COC(=O)CCOC(=O)C(OC)Oc1nn(-c2ccccc2F)c(-c2ccc(F)nc2)c1Br (single isomer, unassigned) [Example I-13]
3. CCOC(Oc1nn(-c2ccccc2F)c(-c2ccc(F)nc2)c1Cl)C(=O)OCC(C)C(=O)OC (racemic) [Example I-54]
4. COC(=O)CCOC(=O)C(OC)Oc1nn(-c2ccccc2F)c(-c2ccc(F)nc2)c1C1CC1 (stereo not shown) [Example I-61]
5. COC(=O)CCOC(=O)C(OC)Oc1nn(-c2cc(F)ccc2F)c(-c2cncc(F)c2)c1C1CC1 (single isomer, unassigned) [Example I-79]
6. COC(=O)CCOC(=O)C(OC)Oc1nn(-c2cc(F)ccc2F)c(-c2cncc(F)c2)c1C1CC1 (stereo not shown) [Example I-83]

Reply:
1: 80%; 2: 80%; 3: 80%; 4: 90%; 5: 90%; 6: 90%

// input: 4 molecules below; output: Post-emergence effect against SETVI in % for each
1. COC(=O)C(C)COC(=O)C(OC)Oc1nn(-c2ccccc2F)c(-c2ccc(F)nc2)c1Br (racemic) [Example I-10]
2. COC(=O)CCOC(=O)C(OC)Oc1nn(-c2ccccc2F)c(-c2ccc(F)nc2)c1C1CC1 (single isomer, unassigned) [Example I-74]
3. COC(=O)C(OC)Oc1nn(-c2ncccc2F)c(-c2cncc(F)c2)c1C1CC1 (stereo not shown) [Example I-87]
4. COC(Oc1nn(-c2ncccc2F)c(-c2cncc(F)c2)c1C1CC1)C(=O)O (stereo not shown) [Example I-85]

Reply:
["80%", "90%", "90%", "90%"]
